Value source: patent US20190367516A1

- Measured on: human M2 receptor (Homo sapiens, UniProt P08172)
- Sequence (P08172 whole entry): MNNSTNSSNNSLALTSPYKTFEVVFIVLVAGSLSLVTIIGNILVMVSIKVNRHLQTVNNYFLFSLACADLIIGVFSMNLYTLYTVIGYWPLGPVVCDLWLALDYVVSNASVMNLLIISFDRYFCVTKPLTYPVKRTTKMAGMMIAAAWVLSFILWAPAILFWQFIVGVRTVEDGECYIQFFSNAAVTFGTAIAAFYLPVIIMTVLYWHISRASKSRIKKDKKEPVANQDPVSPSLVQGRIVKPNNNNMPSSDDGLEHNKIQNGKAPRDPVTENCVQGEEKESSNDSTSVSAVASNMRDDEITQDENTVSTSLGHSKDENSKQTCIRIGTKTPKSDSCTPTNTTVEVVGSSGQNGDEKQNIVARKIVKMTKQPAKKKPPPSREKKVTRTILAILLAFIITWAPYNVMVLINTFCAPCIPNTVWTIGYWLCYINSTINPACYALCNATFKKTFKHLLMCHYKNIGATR
- Condition: Receptor activity EC50, M2-GIRK1/4 activation test, acetylcholine at EC20; allosteric potency; in some cases mean values from two or more determinations
Parameter measured: EC50 (nM)
All answers are understood in nM, so give the number only.

What measured EC50 goes with O=C(NC12CC3CC(CC(C3)C1)C2)c1cn(-c2ccc(F)cc2F)c2nc(N3CC(F)CC3=O)ccc2c1=O (stereo not shown) ?
98

What measured EC50 goes with CCC(NC(=O)c1cn(-c2ccc(F)cc2F)c2nc(N(C)CC(F)(F)F)ccc2c1=O)C(F)(F)F (racemic) ?
143

What measured EC50 goes with Cc1cccc(C)c1CNC(=O)c1cn(-c2ccc(F)cc2F)c2nc(N(C)C)ccc2c1=O ?
100

What measured EC50 goes with O=C(NC(c1ccccc1Cl)C(F)(F)F)c1cn(-c2ccc(F)cc2F)c2nc(N3CCCC(O)C3=O)ccc2c1=O (racemic) ?
107

* * *

- Measured on: human M2 receptor (Homo sapiens, UniProt P08172)
- Condition: Receptor activity EC50, allosteric potency at EC20 acetylcholine; M2-GIRK1/4 reporter cells; in some cases mean of two or more determinations
Measured EC50 determines class: category 1 = under 0.01 µM, category 2 = from 0.01 µM up to 0.03 µM, category 3 = 0.03 µM and over

Which of the defined bands does the recorded EC50 of O=C(NC(CC(F)(F)F)C(F)(F)F)c1cn(-c2c(F)cc(F)cc2F)c2nc(N3C[C@@H](O)CC3=O)ccc2c1=O (single isomer, unassigned) [Example 608] sit within?
category 2

Which of the defined bands does the recorded EC50 of O=C(N[C@@H](C1CC1)C(F)(F)F)c1cn(-c2c(F)cc(F)cc2Cl)c2nc(N3C[C@@H](O)[C@H](O)C3)ccc2c1=O (single isomer, unassigned) [Example 547] sit within?
category 3

Which of the defined bands does the recorded EC50 of CCC1CCN(c2ccc3c(=O)c(C(=O)N[C@@H](C4CC4)C(F)(F)F)cn(-c4c(F)cc(F)cc4F)c3n2)C(=O)N1 (mixture of isomers) [Example 446] sit within?
category 3

Which of the defined bands does the recorded EC50 of O=C(NC1(C(F)(F)F)CCC1)c1cn(-c2c(F)cc(F)cc2F)c2nc(N3C[C@@H](O)[C@H](O)C3)ccc2c1=O sit within?
category 3

Which of the defined bands does the recorded EC50 of CC(NC(=O)c1cn(-c2c(F)cc(F)cc2F)c2nc(N3C[C@@H](O)[C@H](O)C3)ccc2c1=O)C1CCC1 (mixture of isomers) sit within?
category 2

Which of the defined bands does the recorded EC50 of O=C(N[C@@H](C1CC1)C(F)(F)F)c1cn(-c2c(F)cc(F)cc2F)c2nc(N3CCC[C@@H]3CO)ccc2c1=O sit within?
category 3

Which of the defined bands does the recorded EC50 of C[C@H](O)CN(C)c1ccc2c(=O)c(C(=O)N[C@@H](C3CC3)C(F)(F)F)cn(-c3c(F)cc(F)cc3F)c2n1 sit within?
category 2

Which of the defined bands does the recorded EC50 of CC[C@H](NC(=O)c1cn(-c2c(F)cc(F)cc2F)c2nc(N3CC(CO)(CO)C3)ccc2c1=O)C(F)(F)F sit within?
category 2

Which of the defined bands does the recorded EC50 of C[C@@H]1CN(c2ccc3c(=O)c(C(=O)NC(C)(C)C(F)F)cn(-c4c(F)cc(F)cc4F)c3n2)C(=O)N1 sit within?
category 2

Which of the defined bands does the recorded EC50 of O=C(NC1(C(F)(F)F)CCC1)c1cn(-c2c(F)cc(F)cc2F)c2nc(N3CCNC3=O)ccc2c1=O sit within?
category 2

Which of the defined bands does the recorded EC50 of O=C(N[C@@H](C1CC1)C(F)(F)F)c1cn(-c2c(F)cc(F)cc2F)c2nc(N3C[C@H](C(=O)O)OC3=O)ccc2c1=O sit within?
category 3

Which of the defined bands does the recorded EC50 of CC(C)C[C@@H](NC(=O)c1cn(-c2c(F)cc(F)cc2F)c2nc(N3CCNC3=O)ccc2c1=O)C(F)(F)F sit within?
category 2

Which of the defined bands does the recorded EC50 of C[C@@H]1CN(c2ccc3c(=O)c(C(=O)N[C@@H](C4CC4)C(F)(F)F)cn(-c4c(F)cc(F)cc4F)c3n2)C(=O)O1 sit within?
category 3

Which of the defined bands does the recorded EC50 of CC(NC(=O)c1cn(-c2c(F)cc(F)cc2F)c2nc(N3CCNC3=O)ccc2c1=O)C(F)(F)C(F)(F)F (racemic) [Example 541] sit within?
category 1

Which of the defined bands does the recorded EC50 of CC[C@H](NC(=O)c1cn(-c2c(F)cc(F)cc2Cl)c2nc(N3CCC(C)C3=O)ccc2c1=O)C(F)(F)F (single isomer, unassigned) [Example 425] sit within?
category 1

Which of the defined bands does the recorded EC50 of CC[C@H](NC(=O)c1cn(-c2c(F)cc(F)cc2F)c2nc(N3CC4(COC4)C3)ccc2c1=O)C(F)(F)F sit within?
category 3

Which of the defined bands does the recorded EC50 of CC(NC(=O)c1cn(-c2c(F)cc(F)cc2F)c2nc(N3CCNC3=O)ccc2c1=O)(C(F)(F)F)C(F)(F)F sit within?
category 2

Which of the defined bands does the recorded EC50 of CC1CC(=O)N(c2ccc3c(=O)c(C(=O)NC(C4CC4)C(F)(F)F)cn(-c4c(F)cc(F)cc4F)c3n2)C1 (stereo in doubt) sit within?
category 2

Which of the defined bands does the recorded EC50 of CC[C@H](NC(=O)c1cn(-c2c(F)cc(F)cc2F)c2nc(N3CC4CC4(O)C3)ccc2c1=O)C(F)(F)F (mixture of isomers) sit within?
category 1

Which of the defined bands does the recorded EC50 of O=C(NC(C1CCC1)C(F)(F)F)c1cn(-c2c(F)cc(F)cc2F)c2nc(N3C[C@@H](O)CC3=O)ccc2c1=O (single isomer, unassigned) [Example 507] sit within?
category 1

Which of the defined bands does the recorded EC50 of CC[C@H](NC(=O)c1cn(-c2c(F)cc(F)cc2F)c2nc(N(C)C[C@H](C)O)ccc2c1=O)C(F)(F)F sit within?
category 2

Which of the defined bands does the recorded EC50 of CC(C)C(NC(=O)c1cn(-c2c(F)cc(F)cc2F)c2nc(N3C[C@@H](O)[C@H](O)C3)ccc2c1=O)C(F)(F)F (mixture of isomers) [Example 552] sit within?
category 2

Which of the defined bands does the recorded EC50 of CCC(COC(F)(F)F)NC(=O)c1cn(-c2c(F)cc(F)cc2F)c2nc(N3C[C@@H](O)[C@H](O)C3)ccc2c1=O (single isomer, unassigned) [Example 578] sit within?
category 2
